Target: hERG potassium channel (Homo sapiens, UniProt Q12809)
Construct: host or cells: HEK 293 T-REx
Sequence (Q12809 whole entry): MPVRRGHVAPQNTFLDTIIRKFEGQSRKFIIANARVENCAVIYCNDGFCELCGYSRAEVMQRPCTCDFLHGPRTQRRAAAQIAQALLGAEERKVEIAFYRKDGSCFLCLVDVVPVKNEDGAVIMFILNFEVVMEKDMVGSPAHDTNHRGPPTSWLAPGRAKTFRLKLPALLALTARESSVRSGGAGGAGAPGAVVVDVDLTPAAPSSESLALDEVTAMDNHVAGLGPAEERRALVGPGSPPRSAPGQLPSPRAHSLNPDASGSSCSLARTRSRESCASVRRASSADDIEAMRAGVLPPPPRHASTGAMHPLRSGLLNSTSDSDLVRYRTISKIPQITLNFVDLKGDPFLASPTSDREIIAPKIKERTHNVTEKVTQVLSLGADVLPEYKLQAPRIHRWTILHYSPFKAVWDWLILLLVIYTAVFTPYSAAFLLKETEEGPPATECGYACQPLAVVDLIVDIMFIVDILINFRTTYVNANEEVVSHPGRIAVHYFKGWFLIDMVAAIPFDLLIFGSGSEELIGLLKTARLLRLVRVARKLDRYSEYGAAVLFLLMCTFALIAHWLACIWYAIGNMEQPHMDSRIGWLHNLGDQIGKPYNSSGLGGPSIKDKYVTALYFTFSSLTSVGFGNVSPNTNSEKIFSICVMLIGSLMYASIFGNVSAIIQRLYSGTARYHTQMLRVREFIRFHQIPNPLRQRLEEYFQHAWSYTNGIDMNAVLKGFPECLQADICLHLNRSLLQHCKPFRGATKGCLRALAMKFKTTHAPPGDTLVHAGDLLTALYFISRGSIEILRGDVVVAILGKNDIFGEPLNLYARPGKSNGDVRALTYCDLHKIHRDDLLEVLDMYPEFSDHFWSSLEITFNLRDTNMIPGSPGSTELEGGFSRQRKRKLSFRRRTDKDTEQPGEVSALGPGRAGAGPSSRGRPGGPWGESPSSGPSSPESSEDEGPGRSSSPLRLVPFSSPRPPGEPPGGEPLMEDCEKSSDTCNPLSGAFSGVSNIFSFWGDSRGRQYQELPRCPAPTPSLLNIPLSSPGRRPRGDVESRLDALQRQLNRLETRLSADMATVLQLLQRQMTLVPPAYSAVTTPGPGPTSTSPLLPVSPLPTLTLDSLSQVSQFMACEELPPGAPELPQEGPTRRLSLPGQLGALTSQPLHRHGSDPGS
Experiment: Whole cell patch clamp, HEK 293 T-REx HERG cells
Format: cell-based
Conditions: estimated by Hill fit with hill=1, ymax=100; tested at 10 μM, n=2; read-out: IC50 (μM) hERG

- MOLECULAR_STRING: "Cc1nc(Nc2ccc(Cl)cc2)sc1C(=O)N[C@@H](C)c1ccc2ccccc2c1"
  TARGET: "hERG potassium channel (Homo sapiens, UniProt Q12809)"
  IC50: "15.8 µM"
- MOLECULAR_STRING: "COc1ccccc1Nc1nc(C)c(C(=O)N[C@H]2CCC[C@@H]2OCc2ccccc2)s1"
  TARGET: "hERG potassium channel (Homo sapiens, UniProt Q12809)"
  IC50: "7.95 µM"
- MOLECULAR_STRING: "Cc1nc(Nc2ccc(F)cc2)sc1C(=O)N[C@H](C)c1ccc2ccccc2c1"
  TARGET: "hERG potassium channel (Homo sapiens, UniProt Q12809)"
  IC50: "28 µM"
- MOLECULAR_STRING: "COc1ccccc1Nc1nc(C)c(C(=O)N[C@@H]2CCC[C@H]2OCc2ccccc2)s1"
  TARGET: "hERG potassium channel (Homo sapiens, UniProt Q12809)"
  IC50: "25.3 µM"

---

Target: human Kv4.3/KChIP2.2 potassium channel (Homo sapiens)
Construct: expressed in transfected cells
Sequence (Q9UK17 1-655): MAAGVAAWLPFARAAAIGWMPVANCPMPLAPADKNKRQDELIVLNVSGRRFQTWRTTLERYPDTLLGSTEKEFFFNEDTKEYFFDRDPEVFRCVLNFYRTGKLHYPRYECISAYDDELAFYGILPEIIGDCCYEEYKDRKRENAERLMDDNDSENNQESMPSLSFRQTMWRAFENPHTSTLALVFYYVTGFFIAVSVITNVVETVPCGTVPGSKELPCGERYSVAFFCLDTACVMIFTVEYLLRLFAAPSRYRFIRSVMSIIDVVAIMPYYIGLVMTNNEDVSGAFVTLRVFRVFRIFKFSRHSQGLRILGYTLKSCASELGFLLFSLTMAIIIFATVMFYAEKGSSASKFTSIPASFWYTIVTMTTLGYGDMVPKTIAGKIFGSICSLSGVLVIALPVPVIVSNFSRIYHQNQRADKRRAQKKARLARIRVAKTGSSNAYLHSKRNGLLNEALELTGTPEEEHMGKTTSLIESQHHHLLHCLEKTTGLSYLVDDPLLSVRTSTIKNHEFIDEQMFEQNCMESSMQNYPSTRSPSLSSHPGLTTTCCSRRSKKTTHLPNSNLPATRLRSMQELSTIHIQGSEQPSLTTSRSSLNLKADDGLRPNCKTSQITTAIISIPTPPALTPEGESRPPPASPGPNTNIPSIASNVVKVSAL
Test: Whole cell patch clamp, CHO-K1 cells stably expressing human Kv4.3/KChIP2.2
Assay type: cell-based
Conditions: CHO-K1; remaining current measured after application of the compound and relative to the blank; read-out: Kv4.3 charge in %

- MOLECULAR_STRING: "COc1ccccc1Nc1nc(C)c(C(=O)NCc2ccccc2SC)s1"
  MEASUREMENT_UNITS: "%"
  remaining activity at 1 µM: 66
- MOLECULAR_STRING: "COc1ccccc1Nc1nc(C)c(C(=O)N[C@H](C(=O)O)c2ccccc2)s1"
  MEASUREMENT_UNITS: "%"
  remaining activity at 1 µM: 88
- MOLECULAR_STRING: "COc1ccccc1Nc1ccc(C(=O)N[C@H]2CCC[C@@H]2OCc2ccccc2)s1"
  MEASUREMENT_UNITS: "%"
  remaining activity at 1 µM: 41
- MOLECULAR_STRING: "COc1ccccc1Nc1nc(C)c(C(=O)NCc2ccccc2)s1"
  MEASUREMENT_UNITS: "%"
  remaining activity at 1 µM: 90
- MOLECULAR_STRING: "COc1ccccc1Nc1nc(C)c(C(=O)N2CCc3ccccc3C2)s1"
  MEASUREMENT_UNITS: "%"
  remaining activity at 1 µM: 82
